# credit: the RNAGym collection of RNA variant scans (doi:10.1126/science.aae0568)

I'd appreciate it if you could supply yeast fitness values for the items below.
B1: tRNA (parent)
chain: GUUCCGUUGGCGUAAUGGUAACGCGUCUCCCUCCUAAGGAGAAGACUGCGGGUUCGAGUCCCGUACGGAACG

- Variants of: B1
- Assay: yeast fitness relative to wild type (ratio to wild type); higher = fitter; tRNA-Arg(CCU), competitive growth, 37 C, YPD
This sample holds only a part of the variants without activity.
Please reply with the value in numeric form only.

Q: # query: yeast fitness of entry U7G A15C C24U A43G G51A U54C
A: 0.634

Q: And for U3A A42U ?
A: 0.846

Q: And for U32C A36G ?
A: 0.861

Q: And for G18C G58A ?
A: 0.701

Q: And for G23C G63C ?
A: 0.594

Q: And for G17C C30G C60G G63A A65U C66U ?
A: 0.549

Q: And for A14G C22G U35A ?
A: 0.61

Q: And for C11U G67A ?
A: 0.816

Q: And for A45C C46G G51C ?
A: 0.546

Q: And for C24G C46U A69U ?
A: 0.595

Q: And for G50A C55U G67C ?
A: 0.563

Q: And for G6A A15G C46U C66U ?
A: 0.77

Q: And for C31U C46A G58C A69U ?
A: 0.543

Q: And for C4G U28C C66U ?
A: 0.524

Q: And for G10C C24U C29G A45U C46G U47A G50A U64G ?
A: 0.536

Q: And for C11U A15U C34A ?
A: 0.588

Q: And for U8C C60A ?
A: 0.737

Q: And for U26G G56A ?
A: 0.919

Q: And for G12A C34U A37U G41A G50C ?
A: 0.561

Q: And for U2G C4U C60G ?
A: 0.54
